The measured values listed here are drawn from the supplement of paper PMC11208160.

protocol-notes: recombinant UMI read abundance after kanamycin selection (control-corrected) (log10(CPM+1)); higher = more efficient recombination; extreme values may be limits of the assay; sequences stand for … in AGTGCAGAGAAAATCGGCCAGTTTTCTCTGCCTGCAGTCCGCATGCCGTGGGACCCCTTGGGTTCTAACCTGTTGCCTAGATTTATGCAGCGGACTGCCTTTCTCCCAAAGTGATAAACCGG…AGGTTGGTTTCACT; site = the 11-nt donor;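 further: IS621 bridge recombinase in Escherichia coli cells against a fixed T5 target plasmid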
readout: recombinant UMI read abundance (log10)

Solved cases below.
AACATACCATGGACCGGTTTTCCCGGTAATCCGTATTTGGA (site AACATACCTTC) : 0.0114
CCCGGTACATGGACCGGTTTTCCCGGTAATCCGTATTTGCA (site CCCGGTGCTTG) : 0
AGGACATCATGGACCGGTTTTCCCGGTAATCCGTATTTGCT (site CGGACATCTAG) : 1.01

Lab note: each sequence below needs its recombinant UMI read abundance (log10) filled in.
1. ATAGTCGCATGGACCGGTTTTCCCGGTAATCCGTATTTGCG (site GTAGTCGCTCG)
2. TATTATCCATGGACCGGTTTTCCCGGTAATCCGTATTTGCT (site CATTATCCTAG)
3. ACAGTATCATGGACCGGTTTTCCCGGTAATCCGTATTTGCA (site ACGGTAGCTTG)
4. AGCCTTTCATGGACCGGTTTTCCCGGTAATCCGTATTTGAA (site AGCCTTTCTTT)
5. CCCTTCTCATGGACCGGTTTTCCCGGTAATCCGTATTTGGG (site CCCTTCGCTCC)

[0.0129, 0, 0.0044, 0, 0.0128]
